As shown below, each of these compounds has a reported Inhibition value.
System: Staphylococcus aureus
Test: Antibacterial activity against Staphylococcus aureus MRSA ATCC 43300 (CO-ADD:GP_020); MIC in CAMBH media using NBS plates, by Resazurin F(560/590)
Assay type: functional
Settings: Concentration 20 uM, ASSAY_TEST Inhibition of Bacterial Growth, detection method Resazurin, Fluorescence (ex560/em590), MEDIA CAMHB, plate type 384well, CORNING #3640, time 18 hr
# value in %; strip the unit string

Asked: // Input: CCC1CN1P1(=O)OCC(C)([N+](=O)[O-])CO1 (stereo unspecified) . Output its Inhibition only.
Given back: -8.05

====

System: Staphylococcus aureus
Experiment: Antibacterial activity against Staphylococcus aureus MRSA ATCC 43300 (CO-ADD:GP_020); MIC in CAMBH media using NBS plates, by Resazurin F(560/590)
Assay type: functional
Settings: Concentration 20 uM, ASSAY_TEST Inhibition of Bacterial Growth, detection method Resazurin, Fluorescence (ex560/em590), MEDIA CAMHB, plate type 384well, CORNING #3640, time 18 hr
METRIC: Inhibition (%)
# value in %; strip the unit string

Asked: // Input: O=C(O)CCCC[C@@H]1SC[C@@H]2NC(=O)N[C@@H]21 . Output its Inhibition only.
Given back: 10.18

Asked: // Input: CC(C)OC1CCCC(O)C1CC(=O)O (configuration not stated) . Output its Inhibition only.
Given back: 1.66

Asked: // Input: COc1ccccc1[As](=O)(O)CC(O)COc1ccc(Cl)cc1Cl (configuration not stated) . Output its Inhibition only.
Given back: 12.48

Asked: // Input: ClC1=C(Cl)C(Cl)=C(Cl)C1=C/C=C/c1ccccc1 . Output its Inhibition only.
Given back: -15.24

Next:
Asked: // Input: c1ccc2c(c1)Sc1ccccc1N2CC1CN2CCC1CC2 (configuration not stated) . Output its Inhibition only.
Given back: 31.62

Asked: // Input: C[C@H]1CC[C@H]2NCCN[C@H]2C1 . Output its Inhibition only.
Given back: 3.35

Asked: // Input: O=C(Oc1ccccc1)N(c1ccccc1)c1ccccc1 . Output its Inhibition only.
Given back: 13.05

Asked: // Input: CNC(=O)Oc1c(O)ccnc1C . Output its Inhibition only.
Given back: 3.2

Asked: // Input: O=P(OC1=CCCCC1)(c1ccccc1)c1ccccc1 . Output its Inhibition only.
Given back: 2.77

Asked: // Input: O=[N+]([O-])c1cc(-c2ccc([As](=O)(O)O)cc2)ccc1[As](=O)(O)O . Output its Inhibition only.
Given back: 16.49

Asked: // Input: c1cncc(C2Nc3cccc4cccc(c34)N2)c1 . Output its Inhibition only.
Given back: -23.65

Asked: // Input: NN=C1C(Cl)=C(Cl)C(Cl)=C1Cl . Output its Inhibition only.
Given back: -27.05

====

Test system: Escherichia coli
Test: Antibacterial activity against Escherichia coli ATCC 25922 (CO-ADD:GN_001); MIC in CAMBH media using NBS plates, by Resazurin F(560/590)
Assay type: functional
Conditions: Concentration 20 uM, ASSAY_TEST Inhibition of Bacterial Growth, detection method Resazurin, Fluorescence (ex560/em590), MEDIA CAMHB, plate type 384well, CORNING #3640, time 18 hr
Inhibition less than 10% is Fulfilled; Inhibition greater than or equal to 10% is Not fulfilled.

Worked examples, 4 compounds total:
Asked: Lab note: Inhibition threshold 10%. Does this compound come in strictly under it? CC[C@@]1(O)C(=O)OCc2c1cc1n(c2=O)Cc2cc3c(N)cccc3nc2-1
Given back: Not fulfilled

Asked: Lab note: Inhibition threshold 10%. Does this compound come in strictly under it? CNC(=O)Oc1c(O)ccnc1C
Given back: Fulfilled

Asked: Lab note: Inhibition threshold 10%. Does this compound come in strictly under it? C[C@H]1CC[C@H]2NCCN[C@H]2C1
Given back: Not fulfilled

Asked: Lab note: Inhibition threshold 10%. Does this compound come in strictly under it? CN1C(=O)CC[C@@]2(C)C1=CC[C@@H]1[C@@H]2CC[C@@]2(C)[C@H]1CC[C@]2(C)O
Given back: Not fulfilled

Okay, next one:
Asked: Lab note: Inhibition threshold 10%. Does this compound come in strictly under it? O=C1NC(=O)C(=Cc2csc3ccccc23)C(=O)N1
Given back: Fulfilled

====

Tested on: Klebsiella pneumoniae
Details: Concentration 20 uM; ASSAY_TEST Inhibition of Bacterial Growth; detection method Absorption (OD600); MEDIA CAMHB; plate type 384well; NBS; CORNING #3640; time 18 hr
Description: Antibacterial activity against Klebsiella pneumoniae MDR ATCC 70063 (CO-ADD:GN_003); MIC in CAMBH media using NBS plates, by OD(600)
Measured potencies and affinities stand elsewhere.
Rule: Satisfied for Inhibition not less than 7%, Not satisfied for anything less.

Worked examples, 4 compounds total:
Asked: Reported Inhibition at or above 7%? CC(C)(C)c1cc(C=C(C#N)C#N)cc(C(C)(C)C)c1O
Given back: Satisfied

Asked: Reported Inhibition at or above 7%? CNC(=O)Oc1ccc(N(C)C)cc1C(C)C
Given back: Satisfied

Asked: Reported Inhibition at or above 7%? ClC1=C(Cl)C(Cl)=C(Cl)C1=C/C=C/c1ccccc1
Given back: Not satisfied

Asked: Reported Inhibition at or above 7%? CCc1cc2c(cc1-c1csc(CC(=N)NO)n1)C(C)(C)CCC2(C)C
Given back: Not satisfied

Next:
Asked: Reported Inhibition at or above 7%? O=C1CN=C(c2ccc[nH]2)c2cc(Cl)ccc2N1
Given back: Satisfied

Asked: Reported Inhibition at or above 7%? Cc1c(CCN)ccc2c1[nH]c1ccccc12
Given back: Not satisfied

====

As shown below, each of these compounds has a reported Inhibition value.
Test system: Klebsiella pneumoniae
Details: Concentration 20 uM; ASSAY_TEST Inhibition of Bacterial Growth; detection method Absorption (OD600); MEDIA CAMHB; plate type 384well; NBS; CORNING #3640; time 18 hr
Entries with a potency or affinity are not part of this list.
# value in %; strip the unit string

// solved cases for Inhibition follow
Asked: Report Inhibition on Klebsiella pneumoniae for this entry: C=C1C/C(=C/C)C(=O)O[C@@H]2CCN3CC=C(COC(=O)[C@]1(C)O)[C@H]23
Given back: 22.67

Asked: Report Inhibition on Klebsiella pneumoniae for this entry: CCN1CC2C3CCC(C)(O3)C2C1 (stereo not drawn)
Given back: 12.11

Asked: Report Inhibition on Klebsiella pneumoniae for this entry: O=c1cccc2n1C[C@H]1C[C@@H]2CN2CCCC[C@@H]12
Given back: 8.7

Next:
Asked: Report Inhibition on Klebsiella pneumoniae for this entry: CN1C2c3ccccc3C3C4c5ccccc5C(C31)C(C2[N+](=O)[O-])N4C (stereo not drawn)
Given back: 7.01

Asked: Report Inhibition on Klebsiella pneumoniae for this entry: NC(=O)c1ccc(C(=O)Nc2ccc([As](=O)(O)O)cc2)cc1
Given back: 11.59

Asked: Report Inhibition on Klebsiella pneumoniae for this entry: O=C1N(c2nncs2)CCN1[N+](=O)[O-]
Given back: 10.14

====

System: Acinetobacter baumannii
Assay: Antibacterial activity against Acinetobacter baumannii ATCC 19606 (CO-ADD:GN_034); MIC in CAMBH media using NBS plates, by Resazurin F(560/590)
Assay type: functional
Settings: Concentration 20 uM, ASSAY_TEST Inhibition of Bacterial Growth, detection method Resazurin, Fluorescence (ex560/em590), MEDIA CAMHB, plate type 384well, CORNING #3640, time 18 hr
METRIC: Inhibition (%)
# value in %; strip the unit string

// solved cases for Inhibition follow
Asked: // Input: CC(=O)OC1CCC2(C)C(CCC3C2CC(=O)C2(C)C3CC(N3CC3)C2C(C)=O)C1 (configuration not stated) . Output its Inhibition only.
Given back: -5.39

Asked: // Input: O=C(O)CN1C(=O)CN=C(c2ccccn2)c2cc(Cl)ccc21 . Output its Inhibition only.
Given back: 8.33

Asked: // Input: C[C@H]1CC[C@@]2(C)[C@@H](CC[C@@H]3[C@@H]2CC[C@]2(C)[C@@H](O)CC[C@@H]32)C1 . Output its Inhibition only.
Given back: 5.34

Asked: // Input: Cc1ncc([N+](=O)[O-])n1CCOC(N)=O . Output its Inhibition only.
Given back: -5.43

Asked: // Input: CC(CC(C#N)(c1ccccc1)c1ccccc1)N1CCCCC1 (configuration not stated) . Output its Inhibition only.
Given back: -8.26

Next:
Asked: // Input: CNC(=O)Oc1ccc(N(C)C)cc1C(C)C . Output its Inhibition only.
Given back: -2.68

Asked: // Input: COc1ccc2c(c1)NP(=S)(Oc1ccccc1)N2 (configuration not stated) . Output its Inhibition only.
Given back: 7.67

Asked: // Input: COC(=O)c1nc(-c2ccc3c(n2)C(=O)C(N)=C(OC)C3=O)c(N)c(-c2ccc(OC)c(OC)c2O)c1C . Output its Inhibition only.
Given back: -9.1

Asked: // Input: c1cncc(C2Nc3cccc4cccc(c34)N2)c1 . Output its Inhibition only.
Given back: -11.45

Asked: // Input: O=C1CC(c2ccc(O)cc2)Oc2cc(O)cc(O)c21 (configuration not stated) . Output its Inhibition only.
Given back: 6.14

Asked: // Input: COc1ccc2c(c1)C13CCN(C)C(C2)C1CCC1(C3)OCCO1 (configuration not stated) . Output its Inhibition only.
Given back: 10.92

Asked: // Input: CC(C)(C)c1cc(C=C(C#N)C#N)cc(C(C)(C)C)c1O . Output its Inhibition only.
Given back: -9.85

Asked: // Input: COc1cc(C=C2C(=O)NC(=O)NC2=O)ccc1O . Output its Inhibition only.
Given back: 5.89

Asked: // Input: CC(=O)Nc1cccc([As](=O)(c2cccc(NC(C)=O)c2)c2cccc(NC(C)=O)c2)c1 . Output its Inhibition only.
Given back: 1.38

Asked: // Input: O=C1N[C@H]2[C@H](O)[C@H](O)[C@@H](O)[C@H](O)[C@@H]2c2cc3c(c(O)c21)OCO3 . Output its Inhibition only.
Given back: 6.17

Asked: // Input: O=P(Oc1ccccc1)(Oc1ccccc1)c1ccccc1 . Output its Inhibition only.
Given back: -14.38

Asked: // Input: CC(C)OC1CCCC(O)C1CC(=O)O (configuration not stated) . Output its Inhibition only.
Given back: -13.22
